meta.source: ChEMBL document CHEMBL3576816

system: West Nile virus; experiment: Antiviral activity against West Nile virus infected in BHK-WII RepRen1B cells assessed as inhibition of viral replication after 3 days by luciferase reporter gene assay; type: functional, organism-based; settings: 72 h
Parameter measured: EC50

# Compound structure, Tgt, Parameter measured, Reading
records = [
    ("Cc1cn([C@H]2C[C@H](NS(=O)(=O)c3ccc4ccccc4c3)[C@@H](CO[Si](C)(C)C(C)(C)C)O2)c(=O)[nH]c1=O", "West Nile virus", "EC50", "8.4 µM"),
    ("COc1ccc2cc(-c3cn([C@H]4C[C@H](n5cc(C)c(=O)[nH]c5=O)O[C@@H]4CO[Si](C)(C)C(C)(C)C)nn3)ccc2c1", "West Nile virus", "EC50", "7.4 µM"),
    ("COc1ccc2cc(-c3cnnn3[C@H]3C[C@H](n4cc(C)c(=O)[nH]c4=O)O[C@@H]3CO[Si](C)(C)C(C)(C)C)ccc2c1", "West Nile virus", "EC50", "2.9 µM"),
    ("Cc1cn([C@H]2C[C@H](NC(=O)NC34CC5CC(CC(C5)C3)C4)[C@@H](CO[Si](C)(C)C(C)(C)C)O2)c(=O)[nH]c1=O", "West Nile virus", "EC50", "10 µM"),
]

---

test: Cytotoxicity against BHK cells infected with Dengue virus replicon assessed as cell viability after 3 days by CellTiter 96 aqueous one solution cell proliferation assay; format: cell-based, Mesocricetus auratus; details: hamster, 72 h
Parameter CC50: see the listing below.
Parameter measured: CC50 (µM)

# Compound structure, Parameter measured, Reading
measured = [
    ("Cc1cn([C@H]2C[C@H](n3nncc3C3CCCCC3)[C@@H](CO[Si](C)(C)C(C)(C)C)O2)c(=O)[nH]c1=O", "CC50", 22),
    ("COc1ccc2cc(-c3cnnn3[C@H]3C[C@H](n4cc(C)c(=O)[nH]c4=O)O[C@@H]3CO[Si](C)(C)C(C)(C)C)ccc2c1", "CC50", 7.9),
    ("Cc1cn([C@H]2C[C@H](NC(=O)Nc3cccc4ccccc34)[C@@H](CO[Si](C)(C)C(C)(C)C)O2)c(=O)[nH]c1=O", "CC50", 23),
    ("Cc1cn([C@H]2C[C@H](n3nncc3-c3ccccc3)[C@@H](CO[Si](C)(C)C(C)(C)C)O2)c(=O)[nH]c1=O", "CC50", 31),
    ("Cc1cn([C@H]2C[C@H](NC(=O)CCCCc3ccc(F)cc3)[C@@H](CO[Si](C)(C)C(C)(C)C)O2)c(=O)[nH]c1=O", "CC50", 22),
    ("COc1ccc2cc(-c3cn([C@H]4C[C@H](n5cc(C)c(=O)[nH]c5=O)O[C@@H]4CO[Si](C)(C)C(C)(C)C)nn3)ccc2c1", "CC50", 21),
    ("Cc1cn([C@H]2C[C@H](NS(=O)(=O)c3ccc4ccccc4c3)[C@@H](CO[Si](C)(C)C(C)(C)C)O2)c(=O)[nH]c1=O", "CC50", 14),
]

---

assay: Cytotoxicity against BHK cells infected with West Nile virus replicon assessed as cell viability at 10 uM after 3 days by CellTiter 96 aqueous one solution cell proliferation assay relative to control; format: cell-based, Mesocricetus auratus; conditions: hamster, BHK cells infected with West Nile virus replicon; read-out: Activity

# Compound structure, viability at 72 h, 10 µM, %
measured = [
    ("Cc1cn([C@H]2C[C@H](N=[N+]=[N-])[C@@H](CO)O2)c(=O)[nH]c1=O", 83),
]
